Value source: PubChem BioAssay AID1159580

normalized growth: recorded values
experiment: chemical genetic growth profiling, strain panel (AID 1159580);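 further: tested at 20 µM; growth read once vehicle control cultures reached saturation at 30 °C; 1 = growth at the plate median or of vehicle wells; lower values mean less growth of the strain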; details: S. cerevisiae deletion strains, growth OD, locus YNR052C, strain pop2, hits give low values
About 2,000 (36%) of roughly 5,500 compounds were called active. About 18% were inconclusive and are not listed. Some of the results follow.
Give the figure by itself; no unit, no explanation.

These solved cases illustrate the format of a correct answer.
[[record]]
molecule = "COc1ccc([C@H]2Oc3cc(OC)cc(OC)c3C[C@H]2O)cc1"
measured_result = 1.02

[[record]]
molecule = "O=C1CC2OCC=C3CN4CC[C@]56c7ccccc7N1C5[C@H]2[C@H]3CC46 (stereo partly specified)"
measured_result = 0.997

[[record]]
molecule = "CC(=O)N[C@@H](CS)C(=O)O"
measured_result = 1.03

[[record]]
molecule = "CC1(C)OC(=O)C=CC2(C)C1CC(O)C1(C)C2CCC2(C)C(c3ccoc3)OC(=O)C3OC321 (stereo unspecified)"
measured_result = 1.02

[[record]]
molecule = "CCCNC1CCc2nc(N)sc2C1 (stereo unspecified)"
measured_result = 1


Could you now consider this next molecule?
*Q* Name the reported normalized growth value associated with the molecule COc1ccc2c(c1O)OCC1c3cc4c(cc3OC21)OCO4 (stereo unspecified)
*A* 0.987

====

experiment: chemical genetic growth profiling, strain panel (AID 1159580);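 further: tested at 20 µM; growth read once vehicle control cultures reached saturation at 30 °C; 1 = growth at the plate median or of vehicle wells; lower values mean less growth of the strain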; conditions: S. cerevisiae deletion strains, growth OD, locus YOR136W, strain idh2, hits give low values
About 2,000 (36%) of roughly 5,500 compounds were called active. Roughly 18% stayed inconclusive and do not appear here. Some of the results follow.
MEASURED_PARAMETER: normalized growth
Reply: number alone, nothing else.

[[record]]
compound = "C/C1=C\\CCC(=O)C2CC(C)(C)C2CC1 (stereo not drawn)"
measured_result = 1.02

[[record]]
compound = "CCCCOC(=O)c1ccc(N)cc1"
measured_result = 0.956

[[record]]
compound = "Cc1c(Cl)cccc1Nc1ccccc1C(=O)O"
measured_result = 0.893

[[record]]
compound = "COc1cc(-c2coc3cc(OCc4ccccc4)c(OC)c(O)c3c2=O)cc(O)c1OC"
measured_result = 0.97

[[record]]
compound = "C#CCCCCCCCCCCCC(=O)CC(O)COC(C)=O (stereo not drawn)"
measured_result = 0.929


Here is the next item to consider.
*Q* Value lookup for normalized growth; key = Cc1cccc(C(=O)O)c1O
*A* 1.01

====

experiment: chemical genetic growth profiling, strain panel (AID 1159580);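 further: tested at 20 µM; growth read once vehicle control cultures reached saturation at 30 °C; 1 = growth at the plate median or of vehicle wells; lower values mean less growth of the strain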; details: S. cerevisiae deletion strains, growth OD, locus YMR307W, strain GAS1, hits give low values
The whole screen tested about 5,500 compounds, of which about 2,000 (36%) were called active. About 18% were inconclusive and are not listed. The list shows a part of the results.
MEASURED_PARAMETER: normalized growth
Enter the number alone.

Sample records with normalized growth:
[[record]]
molecule = "CC(C)NCC(O)c1cc(O)cc(O)c1 (stereo unspecified)"
measured_result = 1.04

[[record]]
molecule = "CC(C)COCC(CN(Cc1ccccc1)c1ccccc1)N1CCCC1 (stereo unspecified)"
measured_result = 0.726

[[record]]
molecule = "CC1(C)C2CC(=O)[C@]3(C)C(CC[C@@]4(C)[C@H](c5ccoc5)OC(=O)[C@H]5O[C@]543)[C@@]2(C)C=C[C@@H]1O (stereo partly specified)"
measured_result = 1.1

[[record]]
molecule = "COc1cc(-c2coc3cc(OC)c(OC)c(OC)c3c2=O)cc(OC)c1OC"
measured_result = 1.13

[[record]]
molecule = "NC/C=C\\C(=O)O"
measured_result = 1

[[record]]
molecule = "OC(Cn1cncn1)(Cn1cncn1)c1ccc(F)cc1F"
measured_result = 1.25

[[record]]
molecule = "COc1cc(-c2coc3cc(OCc4ccccc4)c(OC)c(O)c3c2=O)cc(O)c1OC"
measured_result = 0.736

[[record]]
molecule = "COc1cc(-c2coc3cc(OCc4ccccc4)c(OC)c(O)c3c2=O)cc(OCc2ccccc2)c1OC"
measured_result = 1.12


*Q* Look up normalized growth for this molecule: N#CC(C#N)=Cc1ccc(-c2cc(C(F)(F)F)ccc2Cl)o1
*A* 0.786

*Q* Then what about the molecule CCC(C)c1cnc(CC(C)C)c(=O)n1O (stereo unspecified) ?
*A* 0.534

*Q* Entry O=C1CC2OCC=C3CN4CC[C@]56c7ccccc7N1C5[C@H]2[C@H]3CC46 (stereo partly specified) please
*A* 0.979
